In this section we review reported IC50 values for a set of compounds.
# System: BTK C481S protein (Homo sapiens (Human), UniProt Q06187, C481S)
# Sequence (Q06187 2-659 C481S): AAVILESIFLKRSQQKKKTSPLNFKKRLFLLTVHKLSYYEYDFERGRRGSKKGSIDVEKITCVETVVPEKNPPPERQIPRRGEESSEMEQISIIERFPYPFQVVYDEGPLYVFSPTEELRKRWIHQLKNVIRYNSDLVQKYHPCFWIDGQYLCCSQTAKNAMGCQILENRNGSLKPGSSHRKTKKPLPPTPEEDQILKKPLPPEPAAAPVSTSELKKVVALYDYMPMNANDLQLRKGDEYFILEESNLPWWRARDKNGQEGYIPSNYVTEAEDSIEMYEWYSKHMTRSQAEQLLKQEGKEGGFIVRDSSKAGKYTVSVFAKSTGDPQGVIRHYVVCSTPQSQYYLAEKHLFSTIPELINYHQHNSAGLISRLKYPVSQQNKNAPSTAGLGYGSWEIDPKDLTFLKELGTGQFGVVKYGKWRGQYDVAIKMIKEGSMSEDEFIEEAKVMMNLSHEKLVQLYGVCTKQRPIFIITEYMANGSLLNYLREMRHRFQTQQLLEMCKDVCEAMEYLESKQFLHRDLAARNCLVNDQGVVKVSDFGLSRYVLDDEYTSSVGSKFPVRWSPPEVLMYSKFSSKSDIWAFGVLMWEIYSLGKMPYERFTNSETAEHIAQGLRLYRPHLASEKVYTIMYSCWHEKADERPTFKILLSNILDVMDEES
# Method Notes: BTK C481S HTRF displacement assay
# Type: binding
# Protocol Conditions: 1-hour incubation

| Compound | IC50 |
| --- | --- |
| Cc1[nH]c2c(C(N)=O)cc(F)c(N3CCC(N(C)C(=O)n4cncn4)C3)c2c1C (centres unmarked) | ≤ 1000 nM |
| NC(=O)c1nn2c(C3CCCCN3C(=O)n3cncn3)ccnc2c1-c1ccc(Oc2ccccc2)cc1 (centres unmarked) | > 1000 nM |
| COc1ccc(F)cc1C(=O)NCc1ccc(-c2nn(C[C@@H](C)N(C)C(=O)n3cncn3)c3ncnc(N)c23)cc1 | ≤ 1000 nM |
| CC1CC(n2nc(-c3ccc(Oc4ccccc4)cc3)c3c(N)ncnc32)CC(C)N1C(=O)n1cncn1 (centres unmarked) | ≤ 1000 nM |
| NC(=O)c1c(-c2ccc(Oc3ccccc3)cc2)nn2c1NCC1CN(C(=O)n3cncn3)CCC12 (centres unmarked) | ≤ 1000 nM |
| COc1ccc(F)cc1C(=O)NCc1ccc(-c2nn(C(Cc3ccccn3)CN(C)C(=O)n3cncn3)c3ncnc(N)c23)cc1 (centres unmarked) | > 1000 nM |
| COCCC(CN(C)C(=O)n1cncn1)n1nc(-c2ccc(CNC(=O)c3cc(F)ccc3OC)cc2)c2c(N)ncnc21 (centres unmarked) | > 1000 nM |
| COc1ccc(F)cc1C(=O)NCc1ccc(-c2nn(C(CN(C(=O)n3cncn3)C3CC3)C3CC3)c3ncnc(N)c23)cc1 (centres unmarked) | > 1000 nM |
| COc1ccc(F)cc1C(=O)NCc1ccc(-c2nn(C(C)C(C)CN(C)C(=O)n3cncn3)c3ncnc(N)c23)cc1 (centres unmarked) | ≤ 1000 nM |
| COc1ccc(F)cc1C(=O)NCc1ccc(-c2nn(C[C@@H]3C[C@@H](C)CCN3C(=O)n3cnnc3)c(N)c2C(N)=O)cc1 | ≤ 1000 nM |
| COc1ccc(F)cc1C(=O)NCc1ccc(-c2nn(C(C)CN(C)C(=O)n3cncn3)c(N)c2C(N)=O)cc1 (centres unmarked) | ≤ 1000 nM |
| COc1ccc(F)cc1C(=O)NCc1ccc(-c2nn(CC3CCCCCN3C(=O)n3cncn3)c3ncnc(N)c23)cc1 (centres unmarked) | > 1000 nM |
| Cc1[nH]c2c(C(N)=O)cc(F)c(N3CCCC4(CCN4C(=O)n4cncn4)C3)c2c1C (centres unmarked) | ≤ 1000 nM |
| COc1ccc(F)cc1C(=O)NCc1ccc(-c2nn(C(C)C3CCCCN3C(=O)n3cncn3)c(N)c2C(N)=O)cc1 (centres unmarked) | ≤ 1000 nM |

Just for reference, patent US20240294531A1 is where these values come from.
